Biological target: human PAH with the R408W mutation (Homo sapiens, UniProt P00439, R408W)
Construct: expressed in transfected cells
Sequence (P00439 whole entry R408W): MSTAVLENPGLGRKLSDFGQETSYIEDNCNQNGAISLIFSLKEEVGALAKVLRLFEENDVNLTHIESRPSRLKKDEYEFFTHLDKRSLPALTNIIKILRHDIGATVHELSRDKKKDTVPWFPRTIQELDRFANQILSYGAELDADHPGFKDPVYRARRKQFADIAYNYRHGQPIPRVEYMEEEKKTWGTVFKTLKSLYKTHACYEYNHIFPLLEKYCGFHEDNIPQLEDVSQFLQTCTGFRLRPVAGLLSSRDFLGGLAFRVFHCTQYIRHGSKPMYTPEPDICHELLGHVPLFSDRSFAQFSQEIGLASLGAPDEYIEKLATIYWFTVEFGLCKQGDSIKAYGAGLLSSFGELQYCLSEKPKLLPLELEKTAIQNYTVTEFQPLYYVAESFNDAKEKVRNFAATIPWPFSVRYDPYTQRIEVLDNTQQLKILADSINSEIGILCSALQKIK
Assay: Cell Based Phenylalanine Flux Assay
Details: A375 cells expressing human R408W PAH; 24 hrs compound incubation; 13C-Tyrosine by LC-MS; average where tested multiple times; read-out: AC50
measurement kind: AC50

Before answering, review these 3 worked examples.
{"columns": ["molecule", "measurement target", "reported value"],
 "data": [
  ["O=C(CC1(O)CCC1)N1CCc2[nH]cnc2[C@H]1c1nc2c(F)cccc2s1 [Example 1647]", "human PAH with the R408W mutation (Homo sapiens, UniProt P00439, R408W)", "500 to 1000 nM"],
  ["CC(C)(F)c1ncc(C(=O)N2CCc3[nH]cnc3[C@@H]2c2nc3ccccc3s2)s1 [Example 1464]", "human PAH with the R408W mutation (Homo sapiens, UniProt P00439, R408W)", "1000 to 5000 nM"],
  ["O=C(c1ncn2ccccc12)N1CCc2[nH]cnc2[C@@H]1c1nc2cc(F)ccc2s1 [Example 1158]", "human PAH with the R408W mutation (Homo sapiens, UniProt P00439, R408W)", "> 5000 nM"]
]}

Look at each molecule and report its AC50.
1. O=C(c1cnn2ccccc12)N1CCc2[nH]cnc2[C@@H]1c1nc2cccc(F)c2s1 [Example 1110]
2. O=C(c1cnc(-c2ccccn2)o1)N1CCc2[nH]cnc2[C@@H]1c1nc2ccccc2s1 [Example 1318]
3. O=C(CC1CC1)N1CCc2[nH]cnc2[C@@H]1c1nc2ccc(F)cc2s1 [Example 1118]
4. O=C(c1oc(CCN2CC(F)C2)nc1C(F)(F)F)N1CCc2[nH]cnc2[C@@H]1c1nc2ccccc2s1 [Example 1576]
5. Cn1nc(Cl)cc1C(=O)N1CCc2[nH]cnc2[C@H]1c1nc2c(F)cccc2s1 [Example 1721]
6. O=C(c1cncs1)N1CCc2[nH]cnc2[C@@H]1c1nc2cccc(F)c2s1 [Example 1234]
7. Cn1nc(Cl)cc1C(=O)N1CCc2[nH]cnc2[C@@H]1c1nc2ccccc2s1 [Example 1924]

["500 to 1000 nM", "1000 to 5000 nM", "> 5000 nM", "< 500 nM", "< 500 nM", "1000 to 5000 nM", "1000 to 5000 nM"]

Look at each molecule and report its AC50.
1. O=C(c1cnn2ccccc12)N1CCc2[nH]cnc2[C@H]1c1nc2cccc(Br)c2s1 [Example 1335]
2. O=C(c1cncs1)N1CCc2[nH]cnc2[C@@H]1c1nc2ccc(Br)cc2[nH]1 [Example 948]

1. < 500 nM
2. 1000 to 5000 nM

Look at each molecule and report its AC50.
1. O=C(c1cn(CC2CC(F)(F)C2)nc1Cl)N1CCc2[nH]cnc2[C@H]1c1nc2c(F)cccc2s1 [Example 2003]
2. O=C(CCC1CC1)N1CCc2[nH]cnc2[C@H]1c1nc2ccc(F)cc2[nH]1 [Example 962]
3. O=C(c1ccno1)N1CCc2[nH]cnc2[C@H]1c1nc2cc(F)ccc2s1 [Example 2153]

1. < 500 nM
2. < 500 nM
3. 1000 to 5000 nM
